B1: Transitional endoplasmic reticulum ATPase, residues 26 to 106; numbered along this chain, P55072 (parent)
chain: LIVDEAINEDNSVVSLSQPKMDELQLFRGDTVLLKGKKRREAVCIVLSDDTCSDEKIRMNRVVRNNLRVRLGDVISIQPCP

Variants of: B1
method summary: abundance fitness (aPCA) (normalised: wild type 0, dead -1); higher = more abundant; growth selection in yeast, the domain comes from the species named
test context: Homo sapiens
# maps each entry to its abundance fitness
measured attribute: abundance fitness

1) D22R: -0.015
2) I57Q: -0.816
3) G29C: -0.259
4) V69G: -0.886
5) I45W: -0.176
6) I77W: -0.856
7) R68K: 0.122
8) K37F: -0.124
9) S76E: -0.096
10) D10Q: -0.072
11) K56G: 0.008
12) C80H: -0.064
13) I7Y: -0.238
